Assay: Solubility testing in buffer containing media
Type: physicochemical
Conditions: buffered aqueous HP-β-CD medium, pH 7.5, aqueous with cosolvent or surfactant or cyclodextrin, HP-β-CD 30.0% (w/w), Phosphate 7.5 (100 μM), room temperature; read-out: AOL solubility
value.type: solubility (µg/mL)
Number only, in µg/mL; omit the unit.

Input line: Which solubility is listed for `COc1ccc(-c2cc(=S)ss2)cc1` ?
Output line: 540

* * *

Assay: Co-solvent addition: AOL solubility
Format: physicochemical
Details: aqueous HP-β-CD solution, aqueous with cosolvent or surfactant or cyclodextrin, thermodynamic from solid, HP-β-CD 20% (w/w), co-solvent 0% (w/w)
value.type: solubility at 4 h (µg/mL)
Number only, in µg/mL; omit the unit.

Input line: Which solubility at 4 h is listed for `COc1ccc(-c2cc(=S)ss2)cc1` ?
Output line: 283
